Provenance of the data: patent US8518934B2

tgt: N-type calcium channel (NTCC) (Homo sapiens, UniProt Q00975)
Construct: endogenous in cells
Sequence (Q00975 whole entry): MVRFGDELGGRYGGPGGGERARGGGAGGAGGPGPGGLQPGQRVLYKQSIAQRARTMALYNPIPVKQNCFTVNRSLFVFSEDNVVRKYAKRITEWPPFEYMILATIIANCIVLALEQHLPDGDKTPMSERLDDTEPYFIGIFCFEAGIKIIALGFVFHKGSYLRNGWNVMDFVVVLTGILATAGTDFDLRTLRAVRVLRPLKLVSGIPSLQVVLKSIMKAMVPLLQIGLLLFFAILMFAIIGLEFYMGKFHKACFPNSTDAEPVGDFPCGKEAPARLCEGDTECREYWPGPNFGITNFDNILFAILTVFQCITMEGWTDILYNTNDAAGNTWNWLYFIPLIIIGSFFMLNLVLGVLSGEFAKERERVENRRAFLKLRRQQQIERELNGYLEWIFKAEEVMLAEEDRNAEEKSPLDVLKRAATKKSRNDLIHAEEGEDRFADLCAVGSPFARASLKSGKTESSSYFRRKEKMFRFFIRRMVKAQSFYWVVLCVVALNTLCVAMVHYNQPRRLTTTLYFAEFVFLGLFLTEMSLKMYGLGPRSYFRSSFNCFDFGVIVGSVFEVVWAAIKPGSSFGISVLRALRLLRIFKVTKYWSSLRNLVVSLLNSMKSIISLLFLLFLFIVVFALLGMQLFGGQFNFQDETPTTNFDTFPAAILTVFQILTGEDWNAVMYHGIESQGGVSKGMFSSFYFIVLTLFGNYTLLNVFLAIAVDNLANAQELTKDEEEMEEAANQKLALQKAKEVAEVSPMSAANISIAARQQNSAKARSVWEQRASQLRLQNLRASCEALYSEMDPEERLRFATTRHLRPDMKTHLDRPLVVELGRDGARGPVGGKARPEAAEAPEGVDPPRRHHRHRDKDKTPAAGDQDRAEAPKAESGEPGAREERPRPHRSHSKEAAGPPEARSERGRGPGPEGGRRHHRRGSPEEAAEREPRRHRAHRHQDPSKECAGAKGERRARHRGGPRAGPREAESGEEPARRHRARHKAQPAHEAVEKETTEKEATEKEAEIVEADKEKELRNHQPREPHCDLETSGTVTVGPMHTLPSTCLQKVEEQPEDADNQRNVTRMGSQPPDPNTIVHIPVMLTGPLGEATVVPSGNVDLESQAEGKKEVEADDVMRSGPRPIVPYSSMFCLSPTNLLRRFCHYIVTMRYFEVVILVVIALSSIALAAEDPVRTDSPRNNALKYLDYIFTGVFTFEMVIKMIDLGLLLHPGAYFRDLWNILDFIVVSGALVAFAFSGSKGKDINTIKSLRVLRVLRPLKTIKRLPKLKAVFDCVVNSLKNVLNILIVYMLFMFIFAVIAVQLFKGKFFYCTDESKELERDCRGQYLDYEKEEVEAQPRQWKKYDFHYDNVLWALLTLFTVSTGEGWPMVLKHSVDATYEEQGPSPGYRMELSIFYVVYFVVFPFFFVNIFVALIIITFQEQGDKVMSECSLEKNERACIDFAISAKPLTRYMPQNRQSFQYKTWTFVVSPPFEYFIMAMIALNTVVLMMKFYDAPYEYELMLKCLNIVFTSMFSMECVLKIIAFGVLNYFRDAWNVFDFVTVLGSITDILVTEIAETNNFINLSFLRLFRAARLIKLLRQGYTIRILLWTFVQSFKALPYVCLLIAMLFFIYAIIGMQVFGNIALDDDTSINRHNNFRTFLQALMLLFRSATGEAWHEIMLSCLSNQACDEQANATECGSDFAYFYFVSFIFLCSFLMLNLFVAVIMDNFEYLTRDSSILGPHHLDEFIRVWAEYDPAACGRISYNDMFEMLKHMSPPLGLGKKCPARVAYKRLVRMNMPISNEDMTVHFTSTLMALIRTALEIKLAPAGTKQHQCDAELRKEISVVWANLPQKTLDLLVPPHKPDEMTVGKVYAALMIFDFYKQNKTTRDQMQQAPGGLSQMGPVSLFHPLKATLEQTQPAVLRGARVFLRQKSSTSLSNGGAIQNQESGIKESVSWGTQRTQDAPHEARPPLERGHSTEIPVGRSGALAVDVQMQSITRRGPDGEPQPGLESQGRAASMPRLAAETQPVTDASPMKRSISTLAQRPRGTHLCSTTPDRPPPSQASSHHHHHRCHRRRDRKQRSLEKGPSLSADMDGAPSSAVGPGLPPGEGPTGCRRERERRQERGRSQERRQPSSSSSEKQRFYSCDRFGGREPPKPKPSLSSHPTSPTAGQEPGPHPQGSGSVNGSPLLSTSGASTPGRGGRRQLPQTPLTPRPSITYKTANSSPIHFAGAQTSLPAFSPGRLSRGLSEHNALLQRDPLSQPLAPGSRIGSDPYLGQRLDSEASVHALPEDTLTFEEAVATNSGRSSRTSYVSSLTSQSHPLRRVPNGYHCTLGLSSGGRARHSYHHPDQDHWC
Sequence (P54289 25-956 partner limits assumed): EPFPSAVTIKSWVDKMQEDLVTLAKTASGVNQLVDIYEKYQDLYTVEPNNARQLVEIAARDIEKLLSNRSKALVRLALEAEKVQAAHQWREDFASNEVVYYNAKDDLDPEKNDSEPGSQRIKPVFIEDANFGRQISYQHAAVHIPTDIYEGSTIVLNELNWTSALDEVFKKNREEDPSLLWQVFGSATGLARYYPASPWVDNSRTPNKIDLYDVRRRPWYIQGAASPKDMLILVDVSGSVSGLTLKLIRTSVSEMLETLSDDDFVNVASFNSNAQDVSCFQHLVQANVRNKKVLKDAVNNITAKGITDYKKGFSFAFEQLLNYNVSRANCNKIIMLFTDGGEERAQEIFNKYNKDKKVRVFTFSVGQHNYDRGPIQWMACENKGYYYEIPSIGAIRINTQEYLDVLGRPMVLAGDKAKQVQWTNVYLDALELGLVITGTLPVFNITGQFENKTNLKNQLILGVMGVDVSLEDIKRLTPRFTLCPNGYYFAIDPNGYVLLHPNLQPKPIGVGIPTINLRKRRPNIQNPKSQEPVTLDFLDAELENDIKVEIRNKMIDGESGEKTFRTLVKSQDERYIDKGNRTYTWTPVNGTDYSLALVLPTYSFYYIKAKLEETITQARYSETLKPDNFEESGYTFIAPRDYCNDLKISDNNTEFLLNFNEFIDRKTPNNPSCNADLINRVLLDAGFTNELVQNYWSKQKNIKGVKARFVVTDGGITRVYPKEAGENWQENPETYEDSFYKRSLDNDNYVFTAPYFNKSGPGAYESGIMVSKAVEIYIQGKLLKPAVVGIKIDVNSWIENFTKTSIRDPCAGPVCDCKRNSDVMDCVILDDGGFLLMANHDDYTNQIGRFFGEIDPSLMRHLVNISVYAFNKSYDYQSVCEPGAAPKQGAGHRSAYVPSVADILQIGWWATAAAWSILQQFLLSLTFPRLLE
Sequence (P54289 957-1103 partner limits assumed): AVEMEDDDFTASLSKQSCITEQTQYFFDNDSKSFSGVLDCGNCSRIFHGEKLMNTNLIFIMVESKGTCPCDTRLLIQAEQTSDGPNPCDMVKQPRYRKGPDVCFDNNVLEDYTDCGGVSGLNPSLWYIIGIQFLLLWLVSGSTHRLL
Sequence (P54284 whole entry partner): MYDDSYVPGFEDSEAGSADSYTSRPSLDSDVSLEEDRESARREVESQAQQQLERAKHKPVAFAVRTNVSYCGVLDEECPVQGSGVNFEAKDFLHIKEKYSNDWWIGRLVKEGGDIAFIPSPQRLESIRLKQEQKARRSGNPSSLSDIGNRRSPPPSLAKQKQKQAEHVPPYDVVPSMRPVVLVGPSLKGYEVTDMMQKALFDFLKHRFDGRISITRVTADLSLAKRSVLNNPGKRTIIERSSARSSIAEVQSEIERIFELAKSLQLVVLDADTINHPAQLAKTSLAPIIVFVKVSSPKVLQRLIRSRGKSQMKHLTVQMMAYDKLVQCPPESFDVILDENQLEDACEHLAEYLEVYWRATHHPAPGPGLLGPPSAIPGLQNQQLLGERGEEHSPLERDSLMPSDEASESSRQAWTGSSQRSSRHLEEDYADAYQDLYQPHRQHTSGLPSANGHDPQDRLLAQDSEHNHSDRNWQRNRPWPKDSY
assay_procedure: FLIPR calcium mobilization assay for N-type calcium channel
measurement_setup: calcium mobilization in vitro assay; differentiated IMR32 cells, 90 mM KCl, 5 μM nitrendipine, Fluo-4
Description: Cell maintenance and differentiation. Unless noted otherwise, cell culture reagents were purchased from Mediatech of Herndon, Md. IMR32 cells (American Type Culture Collection, ATCC, Manassas, Va.) were routinely cultured in growth medium consisting of minimum essential medium containing 10% fetal bovine serum (FBS, Hyclone, Logan, Utah), 100 U/mL penicillin, 100 μg/mL streptomycin, 2 mM L-glutamine, 1 mM sodium pyruvate, and 1×MEM non-essential amino acids. […]
experimental_readout: IC50 (nM)

Some entries whose results are on file:
[[record]]
line_notation = "O=C(CCc1ccc(F)cc1)NOC1CCN(S(=O)(=O)c2cccc(C(F)(F)F)c2)CC1"
experimental_readout = "IC50"
measured_value = 102

[[record]]
line_notation = "O=C(NO[C@H]1CCN(S(=O)(=O)c2cccc(C(F)(F)F)c2)C1)Nc1cc(C(F)(F)F)cc(C(F)(F)F)c1"
experimental_readout = "IC50"
measured_value = 705

[[record]]
line_notation = "O=C(NO[C@H]1CCN(S(=O)(=O)c2cccc(C(F)(F)F)c2)C1)c1ccc(F)cc1"
experimental_readout = "IC50"
measured_value = 1220

[[record]]
line_notation = "O=C(NOC1CCN(C(c2ccc(F)cc2)c2ccc(F)cc2)CC1)Nc1ccc(F)cc1"
experimental_readout = "IC50"
measured_value = 2580

[[record]]
line_notation = "O=C(NOC1CCN(S(=O)(=O)c2ccc(OC(F)(F)F)cc2)CC1)NC1CCC1"
experimental_readout = "IC50"
measured_value = 290


(a) N#Cc1cccc(C(=O)NOC2CCN(S(=O)(=O)c3cccc(C(F)(F)F)c3)CC2)c1
(b) O=C(NCCOc1ccc(F)cc1)NOC1CCN(S(=O)(=O)c2cccc(C(F)(F)F)c2)CC1
(c) O=C(NCCC(F)(F)F)NOC1CCN(S(=O)(=O)c2ccc(OC(F)(F)F)cc2)CC1
Request: # ascending order, key=IC50 List each label, following the requested order.
Response: b, a, c

(P) O=C(NOC1CCN(S(=O)(=O)c2cccc(C(F)(F)F)c2)CC1)C(c1ccccc1)c1ccccc1
(Q) CN(C(=O)NOC1CCN(S(=O)(=O)c2cccc(C(F)(F)F)c2)CC1)c1ccc(F)cc1
Request: // compare: P vs Q , metric IC50, want the smaller Use the label to indicate which entry you chose.
Response: P
(P: 218 nM, Q: 560 nM)
